src = ChEMBL document CHEMBL4613295

# System: Human immunodeficiency virus type 1 reverse transcriptase (Human immunodeficiency virus 1), Q72547 [K540A]
# assay.text: Inhibition of recombinat HIV-1 group M subtype B His-tagged reverse transcriptase p66 K540A mutant expressed in Escherichia coli M15
# conditions.used: HIV-1 M:B
Activity calls are given as the source filed them. The calls are words filed in the database; no cut-off is given here.
Possible outcomes: active, inactive

INSERT INTO measurements (structure_as_smiles, qualitative_label) VALUES
  ('CCOC(=O)c1cc(-c2cn(Cc3ccc(F)cc3)cc2-c2ccc3ccccc3c2)n[nH]1', 'inactive'),
  ('CCOC(=O)c1cc(-c2cn(Cc3ccc(F)cc3)cc2-c2ccc(OCc3ccccc3)cc2)n[nH]1', 'inactive'),
  ('CCOC(=O)c1cc(-c2cn(Cc3ccc(F)cc3)cc2-c2ccc(OCCCCc3ccccc3)cc2)n[nH]1', 'inactive'),
  ('CCOC(=O)c1cc(-c2cn(Cc3ccc(F)cc3)cc2-c2ccccc2)n[nH]1', 'inactive'),
  ('CCOC(=O)/C(O)=C/C(=O)/C=C/c1cccn1Cc1ccccc1Cl', 'active');
